- test-target: human M2 receptor (Homo sapiens, UniProt P08172)
- Sequence (P08172 whole entry): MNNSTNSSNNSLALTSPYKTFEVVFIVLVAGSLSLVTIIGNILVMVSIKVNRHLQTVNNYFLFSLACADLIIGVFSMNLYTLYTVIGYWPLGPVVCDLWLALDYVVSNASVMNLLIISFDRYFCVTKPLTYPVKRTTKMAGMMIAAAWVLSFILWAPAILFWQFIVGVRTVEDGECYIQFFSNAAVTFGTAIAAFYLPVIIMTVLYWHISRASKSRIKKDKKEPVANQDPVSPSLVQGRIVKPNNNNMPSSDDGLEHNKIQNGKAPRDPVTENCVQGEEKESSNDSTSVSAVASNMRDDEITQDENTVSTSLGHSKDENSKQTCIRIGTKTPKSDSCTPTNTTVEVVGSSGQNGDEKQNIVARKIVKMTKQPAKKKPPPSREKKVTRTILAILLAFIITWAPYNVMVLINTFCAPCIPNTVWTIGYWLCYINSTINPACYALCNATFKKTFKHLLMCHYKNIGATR
- method-description: SPA GTP (GTPgS) binding curve shift assay, M2
- Assay type: biochemical
- condition-parameters: M2; Emraclidine concentration 370 nM
endpoint-label: Emax at […] (%)

{"molecule": "CCCCCCCOc1nsnc1C1=CCCCN1C", "Emax at […] / %": 50.1}
{"molecule": "CCCCCCOc1nsnc1C1=CCCN(C)C1 [xanomeline, reference compound]", "Emax at […] / %": 41.5}
{"molecule": "CC1OC2(CS1)CN1CCC2CC1 (stereo not shown) [cevimeline, Cevimeline, reference compound]", "Emax at […] / %": 48.6}
{"molecule": "CCCCCOc1nsnc1C1=CCCCN1C", "Emax at […] / %": 52.6}

====

- test-target: human M3 receptor (Homo sapiens, UniProt P20309)
- Construct: expressed in transfected cells
- Sequence (P20309 whole entry): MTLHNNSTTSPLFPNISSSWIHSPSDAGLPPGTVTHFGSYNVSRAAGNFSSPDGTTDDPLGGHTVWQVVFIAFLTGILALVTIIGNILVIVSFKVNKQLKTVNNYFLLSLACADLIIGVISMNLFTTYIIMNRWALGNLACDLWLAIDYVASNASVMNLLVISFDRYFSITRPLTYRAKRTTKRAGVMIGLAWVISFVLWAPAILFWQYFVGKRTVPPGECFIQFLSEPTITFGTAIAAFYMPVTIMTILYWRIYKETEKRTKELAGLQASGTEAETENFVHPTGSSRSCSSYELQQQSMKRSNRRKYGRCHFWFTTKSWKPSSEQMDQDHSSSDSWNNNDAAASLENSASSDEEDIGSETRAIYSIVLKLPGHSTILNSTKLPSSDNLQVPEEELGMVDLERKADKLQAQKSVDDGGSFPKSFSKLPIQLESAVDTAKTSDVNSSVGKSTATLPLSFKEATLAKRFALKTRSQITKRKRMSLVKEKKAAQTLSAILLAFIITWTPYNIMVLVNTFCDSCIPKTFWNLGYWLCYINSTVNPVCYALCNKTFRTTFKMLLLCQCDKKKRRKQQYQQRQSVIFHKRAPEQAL
- method-description: HTRF IP-One curve shift assay, M3
- Type: cell-based
- condition-parameters: MK-4710 concentration 3330 nM
endpoint-label: pEC50
Conceptually, pEC50 converts a concentration in mol/L into minus its log10.

For the compound CC1OC2(CS1)CN1CCC2CC1 (stereo not shown) [cevimeline, Cevimeline, reference compound] , the measured pEC50 on human M3 receptor (Homo sapiens, UniProt P20309) was 5.39

====

- test-target: human M5 receptor (Homo sapiens, UniProt P08912)
- Construct: expressed in transfected cells
- method-description: HTRF IP-One curve shift assay, M5
- Type: cell-based
- condition-parameters: M5; MK-4710 concentration 370 nM; read-out: Emax
endpoint-label: Emax at […] (%)

{"compound": "CCCCCCOc1nsnc1C1=CCCN(C)C1 [xanomeline, reference compound]", "test-target": "human M5 receptor (Homo sapiens, UniProt P08912)", "units-of-measure": "%", "Emax at […]": 92.9}
{"compound": "CC1OC2(CS1)CN1CCC2CC1 (stereo not shown) [cevimeline, Cevimeline, reference compound]", "test-target": "human M5 receptor (Homo sapiens, UniProt P08912)", "units-of-measure": "%", "Emax at […]": 91.1}
{"compound": "CCCCCOc1nsnc1C1=CCCCN1C", "test-target": "human M5 receptor (Homo sapiens, UniProt P08912)", "units-of-measure": "%", "Emax at […]": 68}
{"compound": "CCCCCCCOc1nsnc1C1=CCCCN1C", "test-target": "human M5 receptor (Homo sapiens, UniProt P08912)", "units-of-measure": "%", "Emax at […]": 76.6}

====

- test-target: human M5 receptor (Homo sapiens, UniProt P08912)
- Construct: expressed in transfected cells
- Sequence (P08912 1-532): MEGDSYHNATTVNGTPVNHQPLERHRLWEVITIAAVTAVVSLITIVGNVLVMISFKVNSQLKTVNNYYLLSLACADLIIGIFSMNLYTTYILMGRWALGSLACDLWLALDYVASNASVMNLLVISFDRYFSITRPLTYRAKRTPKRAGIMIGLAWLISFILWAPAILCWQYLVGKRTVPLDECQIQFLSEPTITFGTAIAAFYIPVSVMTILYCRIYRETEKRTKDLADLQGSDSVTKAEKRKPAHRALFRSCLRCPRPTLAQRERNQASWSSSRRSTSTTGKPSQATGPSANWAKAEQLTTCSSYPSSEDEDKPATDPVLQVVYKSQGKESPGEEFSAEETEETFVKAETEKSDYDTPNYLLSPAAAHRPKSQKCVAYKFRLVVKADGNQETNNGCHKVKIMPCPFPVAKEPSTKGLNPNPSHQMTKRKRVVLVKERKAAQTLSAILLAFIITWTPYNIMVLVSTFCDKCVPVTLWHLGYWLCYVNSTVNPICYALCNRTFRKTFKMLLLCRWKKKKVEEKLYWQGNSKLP
- method-description: HTRF IP-One curve shift assay, M5
- Assay type: cell-based
- condition-parameters: M5; Emraclidine concentration 123 nM; read-out: Emax
- Method: HTRF IP-One assays were performed using frozen cell aliquots prepared from CHO-K1 cell lines stably expressing human M1, M3, or M5 receptors. Cells were frozen following typical cell freezing protocols. […] Six μL of IP-1 detection reagents (IP-One Gq HTRF kit, Cisbio Cat #62IPAPEJ) were dispensed to the cells. […] Then, plates were read on an Envision plate reader following the Cisbio guidelines. Raw data for all assays was transmitted directly from plate readers into the Beacon database for processing. […]
endpoint-label: Emax (%)

[A] CCCCCOc1nsnc1C1=CCCCN1C
[B] CC1OC2(CS1)CN1CCC2CC1 (stereo not shown) [cevimeline, Cevimeline, reference compound]
Query block: Please indicate which item has the smaller measured Emax: A versus B // output: label of the selected item
Result block: A
(A: 62.7%, B: 93.5%)
